assayed.target: UniProtKB P43235
Sequence (P43235 115-329): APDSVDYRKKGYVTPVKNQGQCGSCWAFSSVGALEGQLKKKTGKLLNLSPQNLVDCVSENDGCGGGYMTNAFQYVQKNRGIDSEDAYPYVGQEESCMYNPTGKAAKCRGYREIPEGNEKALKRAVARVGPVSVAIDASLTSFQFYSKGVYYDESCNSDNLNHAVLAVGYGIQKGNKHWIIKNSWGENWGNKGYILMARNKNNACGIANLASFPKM
test.name: Inhibitory activity assay against cathepsin K (enzyme assay)
Type: biochemical
conditions: Z-Phe-Arg-AMC 10 μM, enzyme 1 nM, pH 5.5, 30 minutes
Catalogue of log10 IC50 readings, one per entry.
property.measured: log10 IC50 (log10 of the value in nM)

compound	reported.measurement
N#Cc1nccc(C2(NC(=O)Nc3ccc(-c4ccc(S(N)(=O)=O)cc4)c(C(F)(F)F)c3)CCCCC2)n1 [Example 179]	1.06
COc1ccc(NC(=O)NC2(c3ccnc(C#N)n3)CCCC2)cc1 [Example 81]	2.21
N#Cc1nccc(C2(NC(=O)Nc3ccccc3O)CCCC2)n1 [Example 73]	2.50
N#Cc1nccc(C2(NC(=O)NCc3ccccc3F)CCCC2)n1 [Example 40]	1.97
Cc1ccc(F)c(NC(=O)NC2(c3ccnc(C#N)n3)CCCCC2)c1 [Example 94]	0.95
N#Cc1nccc(C2(NC(=O)Nc3ccc(-c4ccc(CCC(=O)O)cc4)cc3)CCCCC2)n1 [Example 131]	1.20
N#Cc1nccc(C2(NC(=O)Nc3ccc(Br)cc3F)CCCCC2)n1 [Example 134]	0.72
CN(C(=O)NC1(c2ccnc(C#N)n2)CCCCC1)c1ccc(F)c(C(F)(F)F)c1 [Example 105]	0.32
Cc1cccc(NC(=O)NC2(c3ccnc(C#N)n3)CCCC2)c1C [Example 64]	1.88
